System: murine red blood cells
Assay: Red blood cell hemolysis
Format: cell-based, mouse
Procedure: Selectivity of cyclic peptides for bacterial over mammalian cells was evaluated by measuring red blood cell hemolytic activities as described in Tosteson, M. T. Holmes, S. J., Razin, M. and Tosteson, D. C. Melittin Lysis of Red Cells, J. Membrane Biol. 87, 35-44(1985). Heparinized murine blood was centrifuged at 1000×g for 10 minutes. The supernatant and the buffy coat were removed. […] Aliquots of the supernatant were diluted 2 times with saline solution and the absorbance was measured at 560 nm.
Non-standard residues stand in square brackets, D forms with d. Residues, ends and D or L forms follow the SMILES beside them.

{"COMPOUND": "CC(C)C[C@H]1NC(=O)[C@H](Cc2c[nH]c3ccccc23)NC(=O)[C@@H](Cc2c[nH]cn2)NC(=O)[C@H](CCCCN)NC(=O)[C@@H](Cc2c[nH]cn2)NC(=O)[C@H](CCCCN)NC(=O)[C@@H](CC(C)C)NC(=O)[C@H](Cc2c[nH]c3ccccc23)NC1=O [SEQ ID NO:73, [KHKHWLWL]] (cyclo(K[dH]K[dH]W[dL]W[dL]))", "RBC Hemolysis (HD50)": 150}
{"COMPOUND": "CC(C)C[C@H]1NC(=O)[C@H](CCCCN)NC(=O)[C@@H](CO)NC(=O)[C@H](CCCCN)NC(=O)[C@@H](CC(C)C)NC(=O)[C@H](CCCNC(=N)N)NC(=O)[C@@H](CC(C)C)NC(=O)[C@H](CCCNC(=N)N)NC1=O [SEQ ID NO:106, [KSKLRLRL]] (cyclo(K[dL]R[dL]R[dL]K[dS]))", "RBC Hemolysis (HD50)": ">400"}
{"COMPOUND": "CC(C)C[C@H]1NC(=O)[C@H](C)NC(=O)[C@@H](CC(C)C)NC(=O)[C@H](Cc2ccccc2)NC(=O)[C@@H](CC(C)C)NC(=O)[C@H](CCCCN)NC(=O)[C@@H](Cc2c[nH]cn2)NC(=O)[C@H](CCCCN)NC1=O [SEQ ID NO:47, [KHKLFLAL]] (cyclo(K[dH]K[dL]F[dL]A[dL]))", "RBC Hemolysis (HD50)": ">220"}
{"COMPOUND": "CC(C)C[C@H]1NC(=O)[C@H](Cc2c[nH]c3ccccc23)NC(=O)[C@@H](CC(C)C)NC(=O)[C@H](CCCCN)NC(=O)[C@@H]([C@H](C)O)NC(=O)[C@H](CCCCN)NC(=O)[C@@H](CC(C)C)NC(=O)[C@H](Cc2c[nH]c3ccccc23)NC1=O [SEQ ID NO:66, [KTKLWLWL]] (cyclo(K[dT]K[dL]W[dL]W[dL]))", "RBC Hemolysis (HD50)": 150}
{"COMPOUND": "CC(C)C[C@H]1NC(=O)[C@H](CCCCN)NC(=O)[C@@H](CO)NC(=O)[C@H](CCCCN)NC(=O)[C@@H](CC(C)C)NC(=O)[C@H](CCCNC(=N)N)NC(=O)[C@@H](CC(C)C)NC(=O)[C@H](CCCNC(=N)N)NC1=O [SEQ ID NO:105, [KSKLRLRL]] (cyclo(K[dL]R[dL]R[dL]K[dS]))", "RBC Hemolysis (HD50)": ">240"}
{"COMPOUND": "CC(C)C[C@H]1NC(=O)[C@H](Cc2ccccc2)NC(=O)[C@@H](CCCCN)NC(=O)[C@H](CCCCN)NC(=O)[C@@H](CO)NC(=O)[C@H](CCCCN)NC(=O)[C@@H](CC(C)C)NC(=O)[C@H](Cc2ccccc2)NC1=O [SEQ ID NO:76, [KSKKFLFL]] (cyclo(K[dS]K[dK]F[dL]F[dL]))", "RBC Hemolysis (HD50)": 100}
{"COMPOUND": "CC(C)C[C@H]1NC(=O)[C@H](CCCCN)NC(=O)[C@@H](CO)NC(=O)[C@H](CCCCN)NC(=O)[C@@H](CC(C)C)NC(=O)[C@H](Cc2ccccc2)NC(=O)[C@@H](CC(C)C)NC(=O)[C@H](Cc2ccccc2)NC1=O [SEQ ID NO:54, [KSKLFLFL]] (cyclo(F[dL]F[dL]K[dS]K[dL]))", "RBC Hemolysis (HD50)": ">200"}
{"COMPOUND": "CC(C)C[C@H]1NC(=O)[C@H](Cc2c[nH]c3ccccc23)NC(=O)[C@@H](CCCCN)NC(=O)[C@H](CCCCN)NC(=O)[C@@H](CO)NC(=O)[C@H](CCCCN)NC(=O)[C@@H](CC(C)C)NC(=O)[C@H](Cc2c[nH]c3ccccc23)NC1=O [SEQ ID NO:77, [KSKKWLWL]] (cyclo(K[dS]K[dK]W[dL]W[dL]))", "RBC Hemolysis (HD50)": ">220"}
{"COMPOUND": "CC(C)C[C@H]1NC(=O)[C@H](Cc2c[nH]c3ccccc23)NC(=O)[C@@H](Cc2c[nH]cn2)NC(=O)[C@H](CCCCN)NC(=O)[C@@H](CCC(=O)O)NC(=O)[C@H](Cc2c[nH]c3ccccc23)NC(=O)[C@@H](CC(C)C)NC(=O)[C@H](Cc2c[nH]c3ccccc23)NC1=O [SEQ ID NO:16] (cyclo(K[dH]W[dL]W[dL]W[dE]))", "RBC Hemolysis (HD50)": ">100"}
{"COMPOUND": "CC(C)C[C@H]1NC(=O)[C@H](Cc2c[nH]c3ccccc23)NC(=O)[C@@H](Cc2c[nH]c3ccccc23)NC(=O)[C@H](CCCCN)NC(=O)[C@@H](Cc2c[nH]c3ccccc23)NC(=O)[C@H](CCCCN)NC(=O)[C@@H](CC(C)C)NC(=O)[C@H](Cc2c[nH]c3ccccc23)NC1=O [SEQ ID NO:44, [KWWLWLKW]] (cyclo(K[dW]W[dL]W[dL]K[dW]))", "RBC Hemolysis (HD50)": ">58"}
{"COMPOUND": "CC(C)C[C@H]1NC(=O)[C@H](CO)NC(=O)[C@@H](CCCCN)NC(=O)[C@H](Cc2c[nH]c3ccccc23)NC(=O)[C@@H](CC(C)C)NC(=O)[C@H](Cc2c[nH]c3ccccc23)NC1=O [SEQ ID NO:28, cyclo-(D-Lys-Ser-D-Leu-Trp-D-Leu-Trp)] (cyclo(S[dL]W[dL]W[dK]))", "RBC Hemolysis (HD50)": 90}
{"COMPOUND": "CC[C@H](C)[C@@H]1NC(=O)[C@@H](Cc2c[nH]c3ccccc23)NC(=O)[C@H](CCCCN)NC(=O)[C@@H](CCCNC(=N)N)NC(=O)[C@H](C)NC(=O)[C@@H](CC(C)C)NC1=O [SEQ ID NO:114, [KWILAR]] (cyclo(K[dW]I[dL]A[dR]))", "RBC Hemolysis (HD50)": ">200"}
{"COMPOUND": "CC(C)C[C@H]1NC(=O)[C@H](CCCCN)NC(=O)[C@@H](Cc2c[nH]cn2)NC(=O)[C@H](CCCCN)NC(=O)[C@@H](CC(C)C)NC(=O)[C@H](Cc2ccccc2)NC(=O)[C@@H](CC(C)C)NC(=O)[C@H](Cc2ccccc2)NC1=O [SEQ ID NO:48, [KHKLFLFL]] (cyclo(K[dH]K[dL]F[dL]F[dL]))", "RBC Hemolysis (HD50)": ">220"}
{"COMPOUND": "CC(C)C[C@H]1NC(=O)[C@H](Cc2c[nH]c3ccccc23)NC(=O)[C@@H](Cc2c[nH]c3ccccc23)NC(=O)[C@H](CCCCN)NC(=O)[C@@H](CO)NC(=O)[C@H](CCCCN)NC(=O)[C@@H](CC(C)C)NC(=O)[C@H](Cc2c[nH]c3ccccc23)NC1=O [SEQ ID NO:67, [KWWLWLKS]] (cyclo(K[dW]W[dL]W[dL]K[dS]))", "RBC Hemolysis (HD50)": ">153"}

Cited source for all entries: patent US20050107289A1
